- Tested on: U87-MG (malignant glioma) cells
- test_summary: MTT cell growth inhibition, solid tumor cells
- Format: cell-based
- assay_setup: Homo sapiens, U-87 MG; U87-MG, 72 h, MTT; read-out: IC50
- Experimental: […] 6000 well-growing human solid tumor cells were obtained and inoculated into wells of a 96-well cell culture plate. […] Then the viable cell concentration was determined by the MTT method.
readout_label: IC50 (µg/mL)

Completed entries (count: 2):
compound: COc1ccc2cc1Oc1ccc(cc1)C[C@H]1c3cc(c(OC)cc3CCN1C)Oc1c(OC(=O)c3ccc(N(C)C)cc3)c(OC)cc3c1[C@H](C2)N(C)CC3
quantity_unit: µg/mL
value: 1.27
//
compound: COc1ccc2cc1Oc1ccc(cc1)C[C@H]1c3cc(c(OC)cc3CCN1C)Oc1c(OC(=O)C3CC3)c(OC)cc3c1[C@H](C2)N(C)CC3
quantity_unit: µg/mL
value: 1.68

[I] C=CCN(C)CC(O)COc1c(OC)cc2c3c1Oc1cc4c(cc1OC)CCN(C)[C@H]4Cc1ccc(cc1)Oc1cc(ccc1OC)C[C@@H]3N(C)CC2 (stereo partly drawn)
[II] COc1ccc2cc1Oc1ccc(cc1)C[C@H]1c3cc(c(OC)cc3CCN1C)Oc1c(OS(=O)(=O)c3ccc(C)cc3)c(OC)cc3c1[C@H](C2)N(C)CC3
q: Returns: the label, I or II , whose recorded IC50 is the lower number. Respond using the label that marks the chosen record.
a: I
(I: 1.07 µg/mL, II: 1.79 µg/mL)

[1] COc1ccc2cc1Oc1ccc(cc1)C[C@H]1c3cc(c(OC)cc3CCN1C)Oc1c(OCC(O)CNCC3CC3)c(OC)cc3c1[C@H](C2)N(C)CC3 (stereo partly drawn)
[2] COc1ccc2cc1Oc1ccc(cc1)C[C@H]1c3cc(c(OC)cc3CCN1C)Oc1c(OCC(O)CN3CCSCC3)c(OC)cc3c1[C@H](C2)N(C)CC3 (stereo partly drawn)
q: Given 1 and given 2 , which shows the smaller recorded IC50? # answer = label of selected item
a: 1
(1: 0.7 µg/mL, 2: 1.49 µg/mL)

----------
- Tested on: RKO (human colon adenocarcinoma) cells
- test_summary: MTT cell growth inhibition, solid tumor cells
- Format: cell-based
- assay_setup: Homo sapiens; RKO, 72 h, MTT; read-out: IC50
readout_label: IC50 (µg/mL)

These recorded examples may help you get a feel for the data.
compound: COc1ccc2cc1Oc1ccc(cc1)C[C@H]1c3cc(c(OC)cc3CCN1C)Oc1c(OC(=O)c3c(F)cccc3Cl)c(OC)cc3c1[C@H](C2)N(C)CC3
IC50, µg/mL: 1.15
//
compound: C=CCOc1c(OC)cc2c3c1Oc1cc4c(cc1OC)CCN(C)[C@H]4Cc1ccc(cc1)Oc1cc(ccc1OC)C[C@@H]3N(C)CC2
IC50, µg/mL: 1.58
//
compound: COc1ccc2cc1Oc1ccc(cc1)C[C@H]1c3cc(c(OC)cc3CCN1C)Oc1c(OC3CCCC3)c(OC)cc3c1[C@H](C2)N(C)CC3
IC50, µg/mL: 1.25
//
compound: C=CCN(C)CC(O)COc1c(OC)cc2c3c1Oc1cc4c(cc1OC)CCN(C)[C@H]4Cc1ccc(cc1)Oc1cc(ccc1OC)C[C@@H]3N(C)CC2 (stereo partly drawn)
IC50, µg/mL: 0.65
//
compound: COc1ccc2cc1Oc1ccc(cc1)C[C@H]1c3cc(c(OC)cc3CCN1C)Oc1c(OC(=O)C3CC3)c(OC)cc3c1[C@H](C2)N(C)CC3
IC50, µg/mL: 1.79

[a] COc1ccc2cc1Oc1ccc(cc1)C[C@H]1c3cc(c(OC)cc3CCN1C)Oc1c(OCC3CC3)c(OC)cc3c1[C@H](C2)N(C)CC3
[b] COc1ccc2cc1Oc1ccc(cc1)C[C@H]1c3cc(c(OC)cc3CCN1C)Oc1c(OCC(O)CNCC3CC3)c(OC)cc3c1[C@H](C2)N(C)CC3 (stereo partly drawn)
[c] COc1ccc2cc1Oc1ccc(cc1)C[C@H]1c3cc(c(OC)cc3CCN1C)Oc1c(OCC(O)CN3CCSCC3)c(OC)cc3c1[C@H](C2)N(C)CC3 (stereo partly drawn)
q: Sort by IC50, descending. List labels; respect the requested ordering.
a: a, c, b
